Test system: pERK in PSN1 cells
Experiment: Inhibition of KRas phosphorylation of ERK (Cisbio HTRF pERK assay)
Details: Homo sapiens, PSN1, 3 h, read-out: Inhibition (HTRF IC50) of KRas-mediated Phosphorylation of ERK, PSN1
pIC50: −log10 of the molar value.
# pIC50 per entry

- compound: "CCc1c(F)ccc2cc(O)cc(-c3ncc4c(N5CCCC(N6CCCS6(=O)=O)C5)nc(OC[C@@]56CCCN5C[C@H](F)C6)nc4c3F)c12 (stereo partly drawn)"
  pIC50: "≤ 5.00"
- compound: "C#Cc1c(F)ccc2cc(O)cc(-c3ncc4c(N5CC6C(=O)NC(=O)C6C5)nc(OC[C@@]56CCCN5C[C@H](F)C6)nc4c3F)c12 (stereo partly drawn)"
  pIC50: "≤ 5.00"
- compound: "CCc1c(F)ccc2cc(O)cc(-c3ncc4c(N5CCCC(O)(C(F)F)C5)nc(OC[C@@]56CCCN5C[C@H](F)C6)nc4c3F)c12 (stereo partly drawn)"
  pIC50: 5.91
- compound: "CCc1c(F)ccc2cc(O)cc(-c3ncc4c(N5CC6C(=O)NC(=O)C6C5)nc(OC[C@@]56CCCN5C[C@H](F)C6)nc4c3F)c12 (stereo partly drawn)"
  pIC50: "≤ 5.00"
- compound: "CCc1c(F)ccc2cc(O)cc(-c3ncc4c(N5CCC[C@]6(C5)C[C@@](C)(O)C6)nc(OCC56CCCN5CCC6)nc4c3F)c12"
  pIC50: "≤ 5.00"

Attention now shifts to the item below.
// query Need pIC50, item CCc1c(F)ccc2cc(O)cc(-c3ncc4c(N5CCC[C@@](C)(O)C5)nc(OC[C@@H]5CCCN5C)nc4c3F)c12
// result 5.14
